B1: SEC22B (parent)
chain: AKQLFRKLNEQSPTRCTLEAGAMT

Variants of: B1
Experiment: protein stability index of a GFP-peptide fusion (GPS, HEK-293T) (PSI 1-6); higher = more stable;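 note: lentivirally expressed fusions sorted by FACS into six bins by GFP to DsRed ratio, PSI derived from sequencing read proportions per bin multiplied by bin number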
Conditions: c terminus: a fixed tail appended
The threshold is inclusive: protein stability index of exactly 2 counts as 1; values below receive 0.

VARIANT_NOTATION | LABEL_CLASS
L4A | 1
P13Y | 0
E19F | 0
E19L | 1
K2R | 1
T14R | 1
L8N | 1
N9C | 0
M23W | 1

Values compiled from the supplement of paper PMC10567573.
